Biological target: GORASP2, Q9H8Y8
Test: holdup assay
Parameters: key: below the threshold = too weak to quantify, mostly under pKd 3.1 to 4
Conditions: plain residues with an end cap or a label only (N-terminal biotin on a linker: ado-ado)
measure: pKd

Worked cases, pKd given:
KAEEKPPSKV [SCN4B, Q8IWT1]
below the threshold
PDSYHRRDFW [U2AF2, P26368]
below the threshold
HYPASPDSWV [CTNND2, Q9UQB3]
4.51
NNMAFETTHF [SLC5A12, Q1EHB4]
below the threshold

State its pKd: PSDSVGKDVF [EGLN1, Q9GZT9]
below the threshold

Numbers sourced from paper PMC9482650.
